# Test target: anti-CC49 variable region (anti-idiotypic) antibodies in the serum of patient two
# Protocol description: HPLC size exclusion; 5 µg cold competitor + ^125I-HuCC49 + patient serum; less complex = more competition
Measured attribute: percent of complexes (%)
Give the quantity in %, number only.

Below, each entry is followed by its recorded percent of complexes result.
[
  {
    "Binder": "humanized monoclonal antibody HuCC49 (parental HuCC49) (antibody, V domains shown) VH: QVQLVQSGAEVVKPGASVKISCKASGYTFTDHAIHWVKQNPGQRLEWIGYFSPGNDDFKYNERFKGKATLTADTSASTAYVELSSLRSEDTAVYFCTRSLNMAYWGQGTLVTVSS VL: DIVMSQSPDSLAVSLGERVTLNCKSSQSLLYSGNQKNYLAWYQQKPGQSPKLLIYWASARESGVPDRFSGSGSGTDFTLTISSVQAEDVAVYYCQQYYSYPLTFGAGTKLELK",
    "percent of complexes (%)": 1.5
  },
  {
    "Binder": "HuCC49 CDR variant L-2 (antibody, V domains shown) VH: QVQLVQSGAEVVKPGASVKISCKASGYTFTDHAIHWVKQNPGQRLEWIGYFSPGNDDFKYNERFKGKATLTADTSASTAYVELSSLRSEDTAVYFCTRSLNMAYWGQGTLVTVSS VL: DIVMSQSPDSLAVSLGERVTLNCKSSQSLLYSGNQKNYLAWYQQKPGQSPKLLIYWASTRESGVPDRFSGSGSGTDFTLTISSVQAEDVAVYYCQQYYSYPLTFGAGTKLELK",
    "percent of complexes (%)": 3
  },
  {
    "Binder": "HuCC49 CDR variant H-1 (antibody, V domains shown) VH: QVQLVQSGAEVVKPGASVKISCKASGYTFTSYAMHWVKQNPGQRLEWIGYFSPGNDDFKYNERFKGKATLTADTSASTAYVELSSLRSEDTAVYFCTRSLNMAYWGQGTLVTVSS VL: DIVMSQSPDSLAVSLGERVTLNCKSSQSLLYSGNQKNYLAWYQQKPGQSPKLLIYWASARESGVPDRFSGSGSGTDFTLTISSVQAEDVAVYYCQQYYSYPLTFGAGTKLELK",
    "percent of complexes (%)": 5.8
  },
  {
    "Binder": "HuCC49 CDR variant L-3 (antibody, V domains shown) VH: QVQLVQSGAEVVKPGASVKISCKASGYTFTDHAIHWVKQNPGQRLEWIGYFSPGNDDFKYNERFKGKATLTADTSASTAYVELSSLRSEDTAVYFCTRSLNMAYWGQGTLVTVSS VL: DIVMSQSPDSLAVSLGERVTLNCKSSQSLLYSGNQKNYLAWYQQKPGQSPKLLIYWASARESGVPDRFSGSGSGTDFTLTISSVQAEDVAVYYCQQYYSTPYSFGAGTKLELK",
    "percent of complexes (%)": 33.5
  }
]

What percent of complexes value was documented for this binder, HuCC49 CDR variant H-2 (antibody, V domains shown) VH: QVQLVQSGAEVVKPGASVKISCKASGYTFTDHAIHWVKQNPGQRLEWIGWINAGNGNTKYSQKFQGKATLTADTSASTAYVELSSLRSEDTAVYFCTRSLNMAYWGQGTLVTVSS VL: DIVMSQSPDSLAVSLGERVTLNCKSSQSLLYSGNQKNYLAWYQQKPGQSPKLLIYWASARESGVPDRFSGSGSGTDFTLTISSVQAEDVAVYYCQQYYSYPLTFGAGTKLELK ?
29.7

Subsequent entry: HuCC49 CDR variant L-1 (antibody, V domains shown) VH: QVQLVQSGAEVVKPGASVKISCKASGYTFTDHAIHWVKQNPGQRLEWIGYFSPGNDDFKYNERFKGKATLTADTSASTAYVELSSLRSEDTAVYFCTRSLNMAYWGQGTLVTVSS VL: DIVMSQSPDSLAVSLGERVTLNCKSSQSVLYSSNSKNYLAWYQQKPGQSPKLLIYWASARESGVPDRFSGSGSGTDFTLTISSVQAEDVAVYYCQQYYSYPLTFGAGTKLELK
16.9

Now consider HuCC49 CDR variant H-3 (antibody, V domains shown) VH: QVQLVQSGAEVVKPGASVKISCKASGYTFTDHAIHWVKQNPGQRLEWIGYFSPGNDDFKYNERFKGKATLTADTSASTAYVELSSLRSEDTAVYFCTRGGYYGSGSGSNYWGQGTLVTVSS VL: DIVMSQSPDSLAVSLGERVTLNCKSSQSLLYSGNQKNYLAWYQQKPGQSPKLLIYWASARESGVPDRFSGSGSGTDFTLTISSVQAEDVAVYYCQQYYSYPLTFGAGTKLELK and answer again.
6.7

How about this binder: HuCC49 CDR variant L-1,2 (antibody, V domains shown) VH: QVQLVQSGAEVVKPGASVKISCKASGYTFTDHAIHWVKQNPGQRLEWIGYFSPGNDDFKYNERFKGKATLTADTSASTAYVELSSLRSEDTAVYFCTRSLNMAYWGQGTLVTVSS VL: DIVMSQSPDSLAVSLGERVTLNCKSSQSVLYSSNSKNYLAWYQQKPGQSPKLLIYWASTRESGVPDRFSGSGSGTDFTLTISSVQAEDVAVYYCQQYYSYPLTFGAGTKLELK
15.7
